The reported numbers originate from patent US20240400697A1.

TARGET DESC: T1, wild-type epidermal growth factor receptor (EGFR wt) (human, UniProt P00533 25-1210)
T1 construct: whole, on cells; also called wt EGFR; WT EGFR
PROTOCOL DESCRIPTION: flow cytometry on U87MG-EGFR wt cells
PARAMETER: Bmax @ 300 nM (MFI)

>>> obs_value("humanized 4E11 antibody hH3-hL1 (antibody, human IgG4 S228P, kappa, V domains shown, Human IgG4(S228P), C-terminal Lys deleted, human kappa; made in CHO cells; 18) for this name; 16) VH: QVQLQESGPGLVKPSQTLSLTCTVSGYSITSDYAWNWIRQPPGKGLEWMGYIGYNGRTSYNPSLKSRITISRDTSKNQFSLKLSSVTAADTAVYYCARLGRGFAYWGQGTLVTVSS VL: DIQMTQSPSSLSASVGDRVTITCHASQGINSNIGWYQQKPGKAPKLLIYHGTNLEDGVPSRFSGSGSGTDYTLTISSLQPEDFATYYCVQYAQFPYTFGQGTKLEIKR")
164
>>> obs_value("chimeric 4E11 antibody cH-cL (antibody, human IgG4 S228P, kappa, V domains shown, Murine 4E11 V regions on human IgG4(S228P) heavy chain, C-terminal Lys deleted, and human kappa light chain; made in CHO cells; also called chimeric variant) VH: DVQLQESGPGLVKPSQSLSLTCTVTGYSITSDYAWNWIRQFPGNKLEWMGYIGYNGRTSYNPSLKSRISITRDTSKNQFFLQLNYVTTEDTATFYCARLGRGFAYWGQGTLVTVSA VL: DILMTQSPSSMSVSLGDTVSITCHASQGINSNIGWLLQKPGKSFKGLIYHGTNLEDGVPSRFSGSGSGTDYSLTISSLESEDFADYYCVQYAQFPYTFGGGTKLEIKR")
525
>>> obs_value("humanized 4E11 antibody hH3-hL2 (antibody, human IgG4 S228P, kappa, V domains shown, Human IgG4(S228P), C-terminal Lys deleted, human kappa; made in CHO cells; 16) for this name; 17) VH: QVQLQESGPGLVKPSQTLSLTCTVSGYSITSDYAWNWIRQPPGKGLEWMGYIGYNGRTSYNPSLKSRITISRDTSKNQFSLKLSSVTAADTAVYYCARLGRGFAYWGQGTLVTVSS VL: DIQMTQSPSSLSASVGDRVTITCHASQGINSNIGWLQQKPGKAPKGLIYHGTNLEDGVPSRFSGSGSGTDYTLTISSLQPEDFATYYCVQYAQFPYTFGQGTKLEIKR")
160
